// values below are reported pIC50
target: UniProt Q8IIL0; experiment: Falcipain-3 enzymatic assay (assay 1); assay type: biochemical; conditions: parasitic recombinant enzyme, H-D-VLR-AFC substrate, pH 5.5, endpoint read; read-out: Falcipain-3 IC50
pIC50: −log10 of the molar value. Structures can show the parent of a compound that is named as a salt.
quantity.measured: pIC50

molecule | measured.result
CC(=O)N1CCC(N(NC(=O)c2ccc(CN3CCC(N4CCN(C)CC4)CC3)cc2)c2nc(C#N)ncc2Br)CC1 [Example 38, trifluoroacetate] | 7.82 to 8.60
CC(=O)N1CCC(N(NC(=O)OC(C)(C)C)c2nc(C#N)ncc2Br)CC1 [Example 79] | 6.82 to 7.82
CN1CCN(C2CCN(Cc3ccc(C(=O)NN(c4nc(C#N)ncc4Br)C4CCOCC4)cc3)CC2)CC1 [Example 29, trifluoroacetate] | 7.82 to 8.60
CCN(CCCNC(=O)OC(C)(C)C)Cc1ccc(C(=O)NN(c2nc(C#N)ncc2Cl)C2CCCC2)cc1 [Example 81] | 7.82 to 8.60
CN1CCN(C2CCN(Cc3ccc(C(=O)NN(c4nc(C#N)ncc4Cl)C4CCCCC4)cc3)CC2)CC1 [Example 40] | 7.82 to 8.60
CN1CCC(CN2CCN(Cc3cccc(C(=O)NN(c4nc(C#N)ncc4Br)C4CCCC4)c3)CC2)CC1 [Example 15, trifluoroacetate] | 7.82 to 8.60

----------
tested on: Plasmodium falciparum parasite; experiment: Whole cell assay (assay 2); assay type: cell-based
quantity.measured: IC50

compound | target.or.system | measured.result
CN1CCN(Cc2ccc(C(=O)NN(c3nc(C#N)ncc3Br)C3CCCC3)cc2)CC1 [Example 1A] | Plasmodium falciparum parasite | 2.5 to 15 nM

----------
// values below are reported IC50
molecular target: Falcipain-2 (Plasmodium falciparum, UniProt Q8I6U4); test: Falcipain-2 enzymatic assay (assay 1); format: biochemical; conditions: parasitic recombinant enzyme, H-D-VLR-AFC substrate, pH 5.5, endpoint read; read-out: Falcipain-2 IC50
Sequence (Q8I6U4 244-484): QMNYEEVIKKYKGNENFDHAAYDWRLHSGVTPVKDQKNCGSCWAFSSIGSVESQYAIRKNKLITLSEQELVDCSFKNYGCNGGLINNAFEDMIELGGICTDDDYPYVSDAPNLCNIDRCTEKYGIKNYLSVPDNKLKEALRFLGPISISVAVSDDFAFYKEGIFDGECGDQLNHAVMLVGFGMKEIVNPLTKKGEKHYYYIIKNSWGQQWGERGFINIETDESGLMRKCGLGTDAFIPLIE
Structures can show the parent of a compound that is named as a salt.

compound | IC50
CN1CCN(Cc2ccc(C(=O)NN(c3nc(C#N)ncc3Cl)C3CCCC3)cc2)CC1 [Example 50, trifluoroacetate] | < 1 nM
CN1CCN(C(=O)C2CCN(Cc3ccc(C(=O)NN(c4nc(C#N)ncc4Cl)C4CCOCC4)cc3)CC2)CC1 [Example 36, trifluoroacetate] | < 1 nM
CN1CCN(Cc2ccc(C(=O)NN(c3nc(C#N)ncc3Br)C3CCOCC3)cc2)CC1 [Example 42, trifluoroacetate] | < 1 nM

----------
biological target: Falcipain-3 (Plasmodium falciparum); experiment: Falcipain-3 enzymatic assay (assay 1); type: biochemical
Sequence (Q8IIL0 243-492): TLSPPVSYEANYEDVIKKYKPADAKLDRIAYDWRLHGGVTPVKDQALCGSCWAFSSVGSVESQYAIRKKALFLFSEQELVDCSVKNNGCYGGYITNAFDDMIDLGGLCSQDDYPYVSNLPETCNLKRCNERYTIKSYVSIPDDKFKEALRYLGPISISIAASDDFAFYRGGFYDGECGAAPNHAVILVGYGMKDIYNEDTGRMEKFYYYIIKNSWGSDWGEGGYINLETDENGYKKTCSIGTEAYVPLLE
pIC50: −log10 of the molar value. Counter-ions that a name gives are not always drawn.

molecule | target.or.system | pIC50
N#Cc1ncc(Br)c(N(NC(=O)c2ccc(CN3CC(N4CCCC4)C3)cc2)C2CCOCC2)n1 [Example 33, trifluoroacetate] | Falcipain-3 (Plasmodium falciparum) | 6.82 to 7.82
CN1CCN(Cc2ccc(-c3ccc(C(=O)NN(c4nc(C#N)ncc4Br)C4CCCC4)cn3)cc2)CC1 [Example 46, trifluoroacetate] | Falcipain-3 (Plasmodium falciparum) | 6.82 to 7.82
CN1CCN(C2CCN(Cc3cccc(C(=O)NN(c4nc(C#N)ncc4Br)C4CCCCC4)c3)CC2)CC1 | Falcipain-3 (Plasmodium falciparum) | 6.82 to 7.82
CN1CCN(Cc2ccc(C(=O)NN(c3nc(C#N)ncc3Br)C3CCOCC3)cc2)CC1 [Example 42, trifluoroacetate] | Falcipain-3 (Plasmodium falciparum) | 6.82 to 7.82
CN1CCC(CN2CCN(Cc3ccc(C(=O)NN(c4nc(C#N)ncc4Br)C4CCCC4)cc3)CC2)CC1 [Example 7, trifluoroacetate] | Falcipain-3 (Plasmodium falciparum) | 7.82 to 8.60
CN1CCN(C(=O)C2CCN(Cc3ccc(C(=O)NN(c4nc(C#N)ncc4Br)C4CCOCC4)cc3)CC2)CC1 [Example 32, trifluoroacetate] | Falcipain-3 (Plasmodium falciparum) | 7.82 to 8.60
CN1CCC(CN2CCN(Cc3ccc(C(=O)NN(c4nc(C#N)ncc4Br)C4CCCCC4)cc3)CC2)CC1 [Example 19, trifluoroacetate] | Falcipain-3 (Plasmodium falciparum) | 7.82 to 8.60
N#Cc1ncc(Br)c(N(NC(=O)c2ccc(CN3CCC(O)CC3)cc2)C2CCCCC2)n1 [Example 21, trifluoroacetate] | Falcipain-3 (Plasmodium falciparum) | 7.82 to 8.60
CN1CCCC(CN2CCN(Cc3cccc(C(=O)NN(c4nc(C#N)ncc4Br)C4CCCC4)c3)CC2)C1 (centres unmarked) [Example 14, trifluoroacetate] | Falcipain-3 (Plasmodium falciparum) | 7.82 to 8.60
CN1CCN(Cc2ccc(C(=O)NN(c3nc(C#N)ncc3Br)C3CCCCC3)cc2)CC1 [Example 16, trifluoroacetate] | Falcipain-3 (Plasmodium falciparum) | 7.82 to 8.60
CN1CCN(Cc2ccc(-c3ccc(C(=O)NN(c4nc(C#N)ncc4Br)C4CCCCC4)cn3)cc2)CC1 [Example 44, trifluoroacetate] | Falcipain-3 (Plasmodium falciparum) | 7.82 to 8.60
CN1CCN(C2CCN(Cc3ccc(C(=O)NN(c4nc(C#N)ncc4Br)C4CCN(C(=O)OCc5ccccc5)CC4)cc3)CC2)CC1 | Falcipain-3 (Plasmodium falciparum) | 7.82 to 8.60
C[C@@H]1CCC[C@H]1N(NC(=O)c1ccc(F)cc1)c1nc(C#N)ncc1Br (racemic) | Falcipain-3 (Plasmodium falciparum) | 7.82 to 8.60
CCN(Cc1ccc(C(=O)NN(c2nc(C#N)ncc2Cl)C2CCCC2)cc1)C1CCCCC1 [Example 69, trifluoroacetate] | Falcipain-3 (Plasmodium falciparum) | 7.82 to 8.60

----------
// values below are reported pIC50
target: Cathepsin S (Homo sapiens); assay: Cathepsin S enzymatic assay (assay 1); conditions: human recombinant enzyme, KQKLR-AMC substrate, pH 6.5
Sequence (P25774 115-331): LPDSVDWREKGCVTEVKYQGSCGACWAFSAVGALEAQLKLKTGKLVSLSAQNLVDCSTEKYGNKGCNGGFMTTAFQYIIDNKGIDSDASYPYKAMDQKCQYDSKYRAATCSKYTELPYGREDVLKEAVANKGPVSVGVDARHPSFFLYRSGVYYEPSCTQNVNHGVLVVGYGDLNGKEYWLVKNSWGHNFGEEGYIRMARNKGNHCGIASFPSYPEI
pIC50: −log10 of the molar value. Structures can show the parent of a compound that is named as a salt.

compound | pIC50
CC(C)N(Cc1ccc(C(=O)NN(c2nc(C#N)ncc2Cl)C2CCCC2)cc1)C(C)C [Example 72, trifluoroacetate] | > 6.70
CN1CCN(Cc2ccc(C(=O)NN(c3nc(C#N)ncc3Cl)C3CCCC3)cc2)CC1 [Example 50, trifluoroacetate] | > 6.70
CN1CCN(Cc2ccc(-c3ccc(C(=O)NN(c4nc(C#N)ncc4Br)C4CCCC4)cn3)cc2)CC1 [Example 46, trifluoroacetate] | > 6.70
CN1CCN(Cc2ccc(-c3cncc(C(=O)NN(c4nc(C#N)ncc4Br)C4CCCC4)c3)cc2)CC1 [Example 45, trifluoroacetate] | > 6.70
CN(CCc1ccccc1)Cc1ccc(C(=O)NN(c2nc(C#N)ncc2Cl)C2CCCC2)cc1 [Example 62, trifluoroacetate] | > 6.70
CN(CCCc1ccccc1)Cc1ccc(C(=O)NN(c2nc(C#N)ncc2Cl)C2CCCC2)cc1 [Example 64, trifluoroacetate] | > 6.70
CCCN1CCN(c2ccc(C(=O)NN(c3nc(C#N)ncc3Br)C3CCCCC3)cc2)CC1 [Example 80, trifluoroacetate] | > 6.70
CN(Cc1ccc(C(=O)NN(c2nc(C#N)ncc2Cl)C2CCCC2)cc1)C(C)(C)Cc1ccccc1 [Example 71, trifluoroacetate] | > 6.70
CN1CCCC(CN2CCN(Cc3cccc(C(=O)NN(c4nc(C#N)ncc4Br)C4CCCCC4)c3)CC2)C1 (centres unmarked) [Example 27, trifluoroacetate] | > 6.00
CN1CCN(Cc2ccc(C(=O)NN(c3nc(C#N)ncc3Br)C3CCCCC3)cc2)CC1 [Example 16, trifluoroacetate] | > 6.00
CN1CCN(Cc2cccc(-c3cncc(C(=O)NN(c4nc(C#N)ncc4Br)C4CCCCC4)c3)c2)CC1 [Example 47, trifluoroacetate] | > 6.70
CN1CCN(C2CCN(Cc3ccc(C(=O)NN(c4nc(C#N)ncc4Br)C4CCCCC4)cc3)CC2)CC1 [Example 17, trifluoroacetate] | > 6.00
CN1CCN(Cc2ccc(C(=O)NN(c3nc(C#N)ncc3Br)C3CCCC3)cc2)CC1 [Example 1, trifluoroacetate] | > 6.70
CN(C)Cc1ccc(C(=O)NN(c2nc(C#N)ncc2Cl)C2CCCC2)cc1 [Example 54, trifluoroacetate] | > 6.70

----------
target: Cathepsin S (Homo sapiens); assay: Cathepsin S enzymatic assay (assay 1); type: biochemical; details: human recombinant enzyme, KQKLR-AMC substrate, pH 6.5
Where a name gives a salt, the structure may show the parent alone.
// values below are reported IC50
quantity.measured: IC50

compound | measured.result
CN(CC(=O)N(C)C)Cc1ccc(C(=O)NN(c2nc(C#N)ncc2Cl)C2CCCC2)cc1 [Example 60, trifluoroacetate] | < 200 nM
CN1CCC(CN2CCN(Cc3cccc(C(=O)NN(c4nc(C#N)ncc4Br)C4CCCCC4)c3)CC2)CC1 [Example 28, trifluoroacetate] | < 1000 nM
CCN(CCCNC(=O)OC(C)(C)C)Cc1ccc(C(=O)NN(c2nc(C#N)ncc2Cl)C2CCCC2)cc1 | < 200 nM
CC(=O)N1CCC(N(NC(=O)c2ccc(CN3CCC(C(=O)N4CCN(C)CC4)CC3)cc2)c2nc(C#N)ncc2Br)CC1 [Example 49, trifluoroacetate] | < 200 nM
